# subject.of.test: T1, MB peptide complexed with HLA-A*02:01 on T2 cells (human)
# T1 construct: whole, on cells
# protocol: flow cytometry, peptide-loaded T2 cells;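 note: binding of single-chain Fv antibody constructs, raised in XenoMouse, to peptide-pulsed T2 cells measured by flow cytometry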
The reader will find reported Signal/background values listed item by item below.
observable: Signal/background

binder="18182-G6 (scFv, scFv in bacterial lysate, detected with anti-Flag M2) scFv: EVQLLESGGGLVQPGGSLRLSCAASGFTFSSYAMSWVRQAPGKGLEWVSAISGSGGGTYYADSVKGRFTISRDNSKNTLYLQMNSLRAEDTAAYYCVTGKGVHLGFDYWGQGTLVTVSSGGGGSGGGGSGGGGSELVLTQPPSVSVAPGQTARITCGGNNIGSKSVHWHQQKPGQSPVLVIYDDNDRPSGIPERFSGFNSGNTATLTISRVEAGDEADYYCQVWDSSSDHVVFGGGTKLTVL" meas_value=1
binder="18093-B11 (scFv, scFv in bacterial lysate, detected with anti-Flag M2) scFv: EVQLLESGGGLVKPGGSLRLSCAASGFTFSDYYMSWIRQAPGKGLEWVSYISKSGSTIYYADSVKGRFTISRDNAKNSLYLQMNSLRAEDTAVYYCATYNYGHFDYWGQGTLVTVSSGGGGSGGGGSGGGGSELVLTQPPSVSVAPGQTARITCGGNNIGSKSVHWYQQKPGQAPVLVVYDDSDRPSGIPERFSGSNSGNTATLTISRVEAGDEADYYCQVWDSSSDHHVVFGGGTKLTVL" meas_value=1.2
binder="18182-A4 (scFv, scFv in bacterial lysate, detected with anti-Flag M2) scFv: EVQLLESGGGVVQPGRSLRLSCAASGFTFSSYAMTWVRQAPGQGLEWVSSISGSGGGTYYAASVKGRFTISRDNSKNTLYLQMNSLRAEDTAVYYCATGKGVHLGFDYWGQGTLVTVSSGGGGSGGGGSGGGGSELVLTQPPSVSVAPGQTARITCGGNNIGSKSVHWYQQKPGQAPVLVVYDDNDRPSGIPERFSGSNFGNTATLIISRVAAGDEADYYCQVWDSSSDHVVFGGGTKLTVL" meas_value=1
binder="18182-G2 (scFv, scFv in bacterial lysate, detected with anti-Flag M2) scFv: EVQLLESGGGLVQPGGSLRLSCAASGFTFSSHAMSWVRQAPGKGLEWVSAISGSGGGTYNADSVKGRFTISRDNSKNTLYLQMNSLRAEDTAAYYCVTGKGVHLGFDYWGQGTLVTVSSGGGGSGGGGSGGGGSELVLTQPPSVSVAPGQTARITCGGNNIGSKSVHWYQQKPGQAPVMVVYDDNDRPSGIPERFSGSNSGNTATLTISRVEAGDEADYYCQVWDSSSDHVIFGGGTKLTVL" meas_value=1
binder="18089-C9 (scFv, scFv in bacterial lysate, detected with anti-Flag M2) scFv: EVQLLESGPTLVKPTQTLTLTCTFSGFSFTTHKMGVDWIRQPPGKALEWLALIYWNDDKRYSPSLQSRLTITKDTSKNQVVLTMTNMDPVDTATYYCAYRRYNWNYENWFDPWGQGTLVTVSSGGGGSGGGGSGGGGSELQMTQSPSSLSASVGDRVTITCRASQFISSYLNWYQQKPGKAPKLLIYAASSLQSGVPSRFSGRGSGTDFTLTISSLQPEDFATYYCQQSYSTPFTFGPGTKVEIK" meas_value=1.1

The reported measurements were obtained from patent US20220017636A1.
